- EXPERIMENTAL_PROTOCOL: inhibitors of HIV-1 Env-driven cell-cell fusion, primary screen, HeLa-JRFL effector, CEM21 target cells, luciferase (AID 651610);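 note: 0% = plate neutral controls and 100% = maraviroc near 300 nM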
- EXPERIMENTAL_SETUP: at 16.7 µM unless noted
About 3,900 (1.1%) of roughly 360,000 compounds were called active.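 Rule for the calls: active = mean replicate inhibition score of at least 50 and every replicate individually at or above 50; inconclusive = only one of the two criteria met; inactive = mean below 50 and not all replicates reaching 50.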 The entries come from a sample that favours actives as a whole.
// one of 1 (active), -1 (inactive), no free text

A selection of reference data follows.
STRUCTURE_AS_SMILES	ASSIGNED_CATEGORY
COc1ccc(CNC(=O)c2ccc(-c3cccnc3)c3ccoc23)cc1OC	1
C[C@@H]1CN([C@H](C)CO)C(=O)c2cccc(N(C)C)c2O[C@H]1CN(C)S(=O)(=O)c1cn(C)cn1	-1
CCN(C[C@H]1N[C@@](CC)(C(=O)OC)[C@H]2C(=O)N(Cc3ccccc3)C(=O)[C@@H]12)S(=O)(=O)c1ccc(C(F)(F)F)cc1	1

What did this assay record as the result for `N#C[C@H]1[C@H](c2ccc(-c3ccccc3)cc2)[C@@H](CO)N1C(=O)Cc1ccccc1` ?
-1
